MEASUREMENT DESCRIPTION: Solubility test of tacrolimus by visual observation
Format: physicochemical
TEST CONTEXT: aqueous nanoemulsion BF200 (at least 90% water content), aqueous with cosolvent or surfactant or cyclodextrin
READOUT NAME: solubility

If you can, please state the reported solubility value of C=CC[C@@H]1/C=C(\C)C[C@H](C)C[C@H](OC)[C@H]2O[C@@](O)(C(=O)C(=O)N3CCCC[C@H]3C(=O)O[C@H](/C(C)=C/[C@@H]3CC[C@@H](O)[C@H](OC)C3)[C@H](C)[C@@H](O)CC1=O)[C@H](C)C[C@@H]2OC .
≥ 2 mg/mL
